- SYSTEM UNDER TEST: human CD3 on cells (human PBMC; Jurkat TCR/CD3 NFAT reporter cells) (human, UniProt P07766 23-207; P04234 22-171; P09693 23-182)
- Sequence (P07766 23-207, chain 1 of 3): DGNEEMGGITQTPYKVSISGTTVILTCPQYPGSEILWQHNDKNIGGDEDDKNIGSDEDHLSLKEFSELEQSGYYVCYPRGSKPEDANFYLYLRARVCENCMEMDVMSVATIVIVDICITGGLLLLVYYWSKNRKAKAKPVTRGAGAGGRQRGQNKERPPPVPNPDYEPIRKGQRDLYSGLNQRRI
- Sequence (P04234 22-171, chain 2 of 3): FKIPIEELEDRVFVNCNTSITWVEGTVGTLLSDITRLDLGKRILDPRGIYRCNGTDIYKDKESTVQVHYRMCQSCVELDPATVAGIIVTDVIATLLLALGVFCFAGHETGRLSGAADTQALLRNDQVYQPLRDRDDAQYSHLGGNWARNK
- Sequence (P09693 23-182, chain 3 of 3): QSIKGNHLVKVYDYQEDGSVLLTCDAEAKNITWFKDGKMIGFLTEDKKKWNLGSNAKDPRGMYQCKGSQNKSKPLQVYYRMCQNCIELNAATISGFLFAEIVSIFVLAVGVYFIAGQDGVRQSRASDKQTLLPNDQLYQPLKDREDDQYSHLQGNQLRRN
- ASSAY COMMENT: cell-based or functional assay
Provide the reported CD3-NFAT Activity by CD3 mAb of each item.

Recorded results for 2 binders are shown here.
1) Hu155A9B1-3 (antibody, V domains shown, humanized mAb) VH: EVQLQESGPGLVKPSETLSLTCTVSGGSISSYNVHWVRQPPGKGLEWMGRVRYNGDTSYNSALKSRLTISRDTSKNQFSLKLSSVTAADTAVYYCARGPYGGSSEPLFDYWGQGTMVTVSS VL: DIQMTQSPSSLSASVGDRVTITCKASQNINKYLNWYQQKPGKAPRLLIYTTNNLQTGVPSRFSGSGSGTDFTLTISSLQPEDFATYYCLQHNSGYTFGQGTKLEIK    ≤ 50 % SP34
2) Hu192A7B9-3 (antibody, V domains shown, humanized mAb) VH: EVQLQESGPGLVKPSETLSLTCTVSGGSISSYNVHWVRQPPGKGLEWMGRMRYNGDTSYNSALKSRLTISRDTSKNQFSLKLSSVTAADTAVYYCARGPRGGYYSALFDYWGQGTMVTVSS VL: DIQMTQSPSSLSASVGDRVTITCKASQNINRYLNWYQQKPGKAPKLLIYIANSLQTGVPSRFSGSGSGTDFTLTISSLQPEDFATYYCLQHNSWYTFGQGTKLEIK    ≤ 50 % SP34

Now turn to the next binder.
Query block: For the binder shown here, Hu155A9B1-9 (antibody, V domains shown, humanized mAb) VH: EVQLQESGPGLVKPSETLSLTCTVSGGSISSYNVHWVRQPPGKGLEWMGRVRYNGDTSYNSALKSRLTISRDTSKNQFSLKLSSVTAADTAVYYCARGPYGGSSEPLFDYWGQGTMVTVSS VL: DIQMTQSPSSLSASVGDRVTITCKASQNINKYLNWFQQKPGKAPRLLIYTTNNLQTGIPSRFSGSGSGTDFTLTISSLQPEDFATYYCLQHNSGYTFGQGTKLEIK , give the reported CD3-NFAT Activity by CD3 mAb.
Result block: ≤ 50 % SP34
